Task for the reader: assign each of the following molecules its reported POC (Percent of control) FLT3.
TESTED ON: ProfilerPro Kinase Selectivity Assay Kit kinases (Homo sapiens)
Type: biochemical
CONDITION PARAMETERS: FLT3; 1 μM compound concentration
Please make sure the unit comes right after the number.

Prompt: State the recorded POC (Percent of control) FLT3 for this entry: "Cc1cnc(Nc2cccc3[nH]ncc23)c(-c2nc(C)nc(N)n2)c1"
Response: 89 POC

Prompt: Next: "COc1ccc(Nc2ncc(Cc3ccc(S(C)(=O)=O)cc3)cc2-c2nc(C)nc3[nH]cnc23)cn1"
Response: 85 POC

Prompt: Next: "COc1ccc(Nc2ncccc2-c2nc(C)nc3[nH]cnc23)cn1"
Response: 112 POC

Prompt: Next: "Cc1nc(N)nc(-c2cccnc2Nc2cccc(O)c2)n1"
Response: 106 POC

Prompt: Next: "Cc1nc(N)nc(-c2cccnc2Nc2cccc3[nH]ccc23)n1"
Response: 105 POC

Prompt: Next: "Cc1nc(-c2cccnc2Nc2cccc3[nH]ncc23)c2nc[nH]c2n1"
Response: 92 POC

Prompt: Next: "COc1ccc(Nc2ncccc2-c2ncnc3[nH]cnc23)cn1"
Response: 120 POC

###

Task for the reader: assign each of the following molecules its reported POC (Percent of control) MST2.
TESTED ON: ProfilerPro Kinase Selectivity Assay Kit kinases (Homo sapiens)
Assay type: biochemical
CONDITION PARAMETERS: MST2; 1 μM compound concentration
Response body: numeric value in POC, unit text excluded.

Prompt: State the recorded POC (Percent of control) MST2 for this entry: c1cnc(Nc2cccc3[nH]ccc23)c(-c2ncnc3[nH]cnc23)c1 [Example 19]
Response: 82

Prompt: Next: Cc1nc(N)nc(-c2cccnc2Nc2cccc3[nH]ccc23)n1 [Example 22]
Response: 98

Prompt: Next: Cc1cnc(Nc2cccc3[nH]ccc23)c(-c2nc(C)nc(N)n2)c1 [Example 46]
Response: 96

Prompt: Next: CCc1cnc(Nc2ccc(OC)nc2)c(-c2nc(C)nc3[nH]cnc23)c1 [Example 74]
Response: 98

Prompt: Next: c1cnc(Nc2cccc3[nH]ncc23)c(-c2ncnc3[nH]cnc23)c1 [Example 18]
Response: 96

Prompt: Next: COc1ccc(Nc2ncc(Cc3ccc(S(C)(=O)=O)cc3)cc2-c2nc(C)nc3[nH]cnc23)cn1 [Example 103]
Response: 98

Prompt: Next: Cc1nc(N)cc(-c2cccnc2Nc2cccc3[nH]ncc23)n1 [Example 27]
Response: 84

Prompt: Next: Cc1nc(N)nc(-c2cc(CN3CCN(S(C)(=O)=O)CC3)cnc2Nc2cccc(O)c2)n1 [Example 30]
Response: 98

Prompt: Next: COc1ccc(Nc2ncc(CN3CCN(C(C)=O)CC3)cc2-c2nc(C)nc3[nH]cnc23)cn1 [Example 89]
Response: 98

Prompt: Next: COc1ccc(Nc2ncccc2-c2ncnc3[nH]cnc23)cn1 [Example 20]
Response: 95

Prompt: Next: Cc1cnc(Nc2cccc3[nH]ncc23)c(-c2nc(C)nc(N)n2)c1 [Example 47]
Response: 101

###

TESTED ON: ProfilerPro Kinase Selectivity Assay Kit kinases (Homo sapiens, UniProt P23443)
Format: biochemical
CONDITION PARAMETERS: p70S6K; 1 μM compound concentration
Classify: true (1) when POC (Percent of control) p70S6K is strictly less than 100 POC; false (0) when POC (Percent of control) p70S6K is not.

Prompt: Find out if reported POC (Percent of control) p70S6K for "Cc1cnc(Nc2cccc3[nH]ccc23)c(-c2nc(C)nc(N)n2)c1" is less than 100 POC
Response: true (1)

Prompt: Next: "Cc1nc(-c2cccnc2Nc2cccc3[nH]ncc23)c2nc[nH]c2n1"
Response: true (1)

Prompt: Next: "Cc1nc(N)nc(-c2cccnc2Nc2cccc3[nH]ccc23)n1"
Response: true (1)

Prompt: Next: "COc1ccc(Nc2ncccc2-c2ncnc3[nH]cnc23)cn1"
Response: false (0)
